Hey, just so you know, these numbers are from ChEMBL document CHEMBL1806376.

MIC overview
Test system: Enterococcus faecalis
test_method_notes: Antibacterial activity against Enterococcus faecalis ATCC 29212 by broth microdilution method
Type: functional
particulars: Enterococcus faecalis, ATCC 29212; read-out: MIC
Numbers only; they are read as µg/mL.

Some entries whose results are on file:
CO[C@H]1CCCCCCCCC[C@@H](C)OC(=O)C(S(=O)(=O)c2ccccc2)CC1=O (some centres undefined): 4
CC(=O)O[C@H]1CCCCCCCCC[C@@H](C)OC(=O)/C=C/C1=O: 4

Now let's try a different one.
QUERY: Request the reported MIC associated with C[C@@H]1CCCCCCCCC[C@H](O)C(=O)CC(SCC(F)(F)F)C(=O)O1 (some centres undefined)
RESULT: 4
